Assay: gradient 5% acetonitrile 3 min, to 50% in 2 min, to 85% in 15 min, held 3 min, 100 µL/min
Details: column: Zorbax Extend-C18 2.1 x 50 mm; eluents: water / acetonitrile, 0.1% formic acid
Reported RP-LC retention time values for the following compounds.
# output: bare number, implied unit s

Cn1cc(C(=O)C(=O)N[C@H]2CN3CCC2CC3)c2ccccc21 | 672
CN(Cc1ccco1)C(=O)C1CCCN(c2ncnc3c2nc2n3CCCCC2)C1 (stereo not given) | 738
Cc1cc(C(=O)N2CC3CN(S(=O)(=O)c4cccc(F)c4)CC(C2)O3)c(C)o1 | 828
Cc1ccc(NC(=O)Cc2ccc(S(C)(=O)=O)cc2)c(C(=O)c2ccccc2)c1 | 814
COCCNS(=O)(=O)c1cc(-c2[nH]ncc2C(=O)N2CCCC2)oc1C | 591

Q) Quickly give me recorded RP-LC retention time for "CCc1nnc(-c2ccc3ccn(CC(=O)NCCc4sccc4C)c3c2)o1"
A) 1170

Q) Please report the measured RP-LC retention time for "COc1ccc(C)cc1NC(=O)CN1C(=O)C(C)(C)c2cc(C)ccc21"
A) 588

Q) # return recorded RP-LC retention time for entry "O=C(NCC#CCN1CCc2ccccc2C1)c1c(F)cccc1Cl"
A) 565

----------
Experiment: gradient 5% acetonitrile 3 min, to 50% in 2 min, to 85% in 15 min, held 3 min, 100 µL/min
Conditions: column: Zorbax Extend-C18 2.1 x 50 mm; eluents: water / acetonitrile, 0.1% formic acid
This listing pairs compounds with measured RP-LC retention time.
Lab book: enter the figure in s, no units written.

Below, 3 compounds whose answers are already recorded.
COc1cc(-c2noc(CN3C(=O)COc4cc(C)ccc43)n2)cc(OC)c1OC | 974
COC1CCOC2(CCN(C(=O)Nc3ccc4c(c3)OCCO4)CC2)C1 (stereo unspecified) | 690
CNC(=O)C1CCN(c2nc3ccc(-c4ccncc4)nc3s2)CC1 | 568

Q) Please indicate RP-LC retention time recorded for "Cc1ccc(NC(=O)N2CCC(n3cnc4cc(Cl)ccc4c3=O)CC2)cc1C"
A) 911

Q) Supply recorded RP-LC retention time for COc1ccc(S(=O)(=O)N2CCCC(C(=O)Nc3ccc(C(N)=O)cc3)C2)cc1OC (stereo unspecified) here.
A) 682

Q) Hello, please tell me recorded RP-LC retention time for this one: "COc1ccc(CNC(=O)c2ccc3c(c2)CC(=O)N3C)cc1"
A) 696

----------
Experiment: gradient 5% acetonitrile 3 min, to 50% in 2 min, to 85% in 15 min, held 3 min, 100 µL/min
Conditions: column: Zorbax Extend-C18 2.1 x 50 mm; eluents: water / acetonitrile, 0.1% formic acid
Mark MET for RP-LC retention time under 800 s, NOT MET if at or over.

Consider the following illustrative entries.
Cc1nc(CC(=O)Nc2nc(-c3ccc(F)cc3)cs2)cs1 | NOT MET
CC(=O)Nc1cc(C(=O)NC2CCCC2)c2ccc(C)nc2c1 | MET
COc1ccccc1-c1nnc(-c2ccc(Cl)c(S(=O)(=O)N(C)C)c2)o1 | NOT MET
CC(C)CC(=O)N1CCC(COc2ccc(C(=O)NC3CC3)cc2)CC1 | MET
COCc1c(C(=O)O)nnn1Cc1ccccc1C | MET
CCNC(=O)C1CCCN(c2nc3ncn(CC(=O)NCc4ccc(C)cc4)c(=O)c3s2)C1 (stereo not drawn) | MET
Cc1oc2ccn(Cc3cccc(F)c3)c(=O)c2c1C(=O)NCc1ccc(F)cc1F | NOT MET
Cc1ccc(C)c(NC(=O)N2CCN(c3cc(-c4ccncc4)[nH]n3)CC2)c1 | MET
COc1ccc(N2CCN(c3ncc(S(=O)(=O)c4ccc(C)cc4)c(N)n3)CC2)cc1 | NOT MET
CCCNC(=O)N1CCCN(S(C)(=O)=O)CC1 | MET

Q) RP-LC retention time strictly < 800 s for this molecule? CC1Oc2ccc(-c3csc(NC(=O)c4cccnc4)n3)cc2N(C)C1=O (stereo not drawn)
A) MET
